Provide the recorded Emax for the entries that follow.
- Target desc: Protein cereblon/E3 ubiquitin-protein ligase Mdm2 (Homo sapiens) (UniProt Q00987+Q96SW2)
- Sequence (Q00987 whole entry, looked up): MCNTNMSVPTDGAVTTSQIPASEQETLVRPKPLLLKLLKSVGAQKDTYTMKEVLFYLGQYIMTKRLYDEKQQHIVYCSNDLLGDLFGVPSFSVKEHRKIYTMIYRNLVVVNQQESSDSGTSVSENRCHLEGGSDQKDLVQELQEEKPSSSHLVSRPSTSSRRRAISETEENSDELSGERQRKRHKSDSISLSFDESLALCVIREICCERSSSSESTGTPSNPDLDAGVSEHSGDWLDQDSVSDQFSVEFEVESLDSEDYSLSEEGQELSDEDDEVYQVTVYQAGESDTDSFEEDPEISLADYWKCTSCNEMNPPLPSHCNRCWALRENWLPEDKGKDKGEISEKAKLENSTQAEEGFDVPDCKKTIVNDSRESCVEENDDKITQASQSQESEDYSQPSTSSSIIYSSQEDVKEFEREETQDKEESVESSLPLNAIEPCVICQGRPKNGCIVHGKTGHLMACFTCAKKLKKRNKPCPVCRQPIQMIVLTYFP
- Sequence (Q96SW2 whole entry, looked up): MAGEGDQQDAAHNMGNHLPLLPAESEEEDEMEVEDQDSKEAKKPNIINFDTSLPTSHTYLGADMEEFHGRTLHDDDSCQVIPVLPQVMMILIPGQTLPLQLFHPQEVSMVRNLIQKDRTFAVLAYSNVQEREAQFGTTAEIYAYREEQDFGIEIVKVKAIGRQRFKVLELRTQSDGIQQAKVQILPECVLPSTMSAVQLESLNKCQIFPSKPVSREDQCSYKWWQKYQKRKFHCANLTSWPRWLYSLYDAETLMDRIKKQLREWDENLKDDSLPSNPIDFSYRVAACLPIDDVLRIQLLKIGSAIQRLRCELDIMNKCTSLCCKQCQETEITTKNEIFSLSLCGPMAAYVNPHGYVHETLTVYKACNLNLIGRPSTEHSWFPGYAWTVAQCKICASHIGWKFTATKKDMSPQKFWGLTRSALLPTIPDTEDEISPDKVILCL
- Assay protocol: PROTAC activity at CRBN/MDM2 in human HEK293 cells at 30 uM measured after 24 hrs Western blot analysis relative to control
- Type: cell-based

Consider the worked cases shown below.
[[record]]
molecule = "CN(C(=O)CCOCCOCCOCCNc1cccc2c1C(=O)N(C1CCC(=O)NC1=O)C2=O)C(c1ccc(F)cc1)c1cccnc1 (centres undefined)"
target_desc = "Protein cereblon/E3 ubiquitin-protein ligase Mdm2 (Homo sapiens) (UniProt Q00987+Q96SW2)"
value_observed = "5.6%"

[[record]]
molecule = "O=C1CCC(N2C(=O)c3cccc(NCCOCCOCCC(=O)N4CCOC(c5cccc(OC(F)F)c5)C4)c3C2=O)C(=O)N1 (centres undefined)"
target_desc = "Protein cereblon/E3 ubiquitin-protein ligase Mdm2 (Homo sapiens) (UniProt Q00987+Q96SW2)"
value_observed = "28.3%"


Please look at the following molecule next.
## Input What measured Emax is associated with O=C1CCC(N2C(=O)c3ccc(NCCOCCOCCC(=O)N4CCN(c5nccc(C(F)(F)F)n5)CC4)cc3C2=O)C(=O)N1 (centres undefined) on Protein cereblon/E3 ubiquitin-protein ligase Mdm2 (Homo sapiens) (UniProt Q00987+Q96SW2)?
## Output 31.5%
